- target: GlyRS (Homo sapiens)
- Construct: made in house; host or cells: E. coli BL21(DE3)
- Sequence (P41250 37-739): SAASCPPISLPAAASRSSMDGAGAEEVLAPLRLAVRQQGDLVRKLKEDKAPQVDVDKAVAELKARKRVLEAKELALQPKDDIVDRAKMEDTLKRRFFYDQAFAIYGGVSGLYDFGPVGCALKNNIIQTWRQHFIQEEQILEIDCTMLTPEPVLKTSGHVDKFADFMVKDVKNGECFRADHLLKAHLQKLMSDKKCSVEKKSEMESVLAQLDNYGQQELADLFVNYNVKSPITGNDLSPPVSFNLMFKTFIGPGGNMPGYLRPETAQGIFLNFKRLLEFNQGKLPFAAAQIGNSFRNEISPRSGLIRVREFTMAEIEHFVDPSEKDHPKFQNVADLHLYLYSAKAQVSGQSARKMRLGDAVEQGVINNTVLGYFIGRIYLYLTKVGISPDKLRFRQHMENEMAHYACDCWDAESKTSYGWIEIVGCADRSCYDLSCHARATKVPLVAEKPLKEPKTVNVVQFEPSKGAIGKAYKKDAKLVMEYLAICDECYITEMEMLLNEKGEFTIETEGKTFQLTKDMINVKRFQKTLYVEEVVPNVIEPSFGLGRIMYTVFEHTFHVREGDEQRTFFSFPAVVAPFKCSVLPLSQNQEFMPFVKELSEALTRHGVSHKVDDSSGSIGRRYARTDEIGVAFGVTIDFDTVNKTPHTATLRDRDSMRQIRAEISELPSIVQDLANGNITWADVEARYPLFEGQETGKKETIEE
- experimentSummary: Bio-layer interferometry (BLI) binding assay
- testContext: BLI, immobilized GlyRS
testReadout: Kdis

molecule | target | Kdis
COC(=O)C1=C(C)NC(C)=C(C(=O)OCC(C)C)C1c1ccccc1[N+](=O)[O-] (stereo not drawn) [Nisoldipine, reference compound] | GlyRS (Homo sapiens) | 400 ± 94.49 (1/s) × 10^−2
Oc1c(I)cc(I)c2cccnc12 [Iodoquinol, reference compound] | GlyRS (Homo sapiens) | 2.23 ± 0.49 (1/s) × 10^−2
Oc1cc2c3c(c1)c1cc4c(cc1c[n+]3CC2)OCO4 [Lycobetaine] | GlyRS (Homo sapiens) | 39.73 ± 11.18 (1/s) × 10^−2
CC(C)c1cc2c(c(O)c1O)[C@@]1(C(=O)O)CCCC(C)(C)[C@@H]1CC2 [Carnosic acid] | GlyRS (Homo sapiens) | 1.12 ± 0.17 (1/s) × 10^−2
Cc1ccc(S(=O)(=O)NCl)cc1 [Chloramine-T] | GlyRS (Homo sapiens) | 78.19 ± 17.95 (1/s) × 10^−2
O=c1cc(-c2ccc(O)cc2)oc2cc(O)c(O)c(O)c12 [Scutellarein] | GlyRS (Homo sapiens) | 1.09 ± 0.11 (1/s) × 10^−2
CC(=O)N[C@@H](C)C(=O)O [N-Acetyl-L-alanine] | GlyRS (Homo sapiens) | 560 ± 194 (1/s) × 10^−2
COC[C@H]1C[C@@H](c2nc(-c3ccc4c(c3)COc3cc5c(ccc6nc([C@@H]7CC[C@H](C)N7C(=O)[C@@H](NC(=O)OC)C(C)C)[nH]c65)cc3-4)c[nH]2)N(C(=O)[C@H](NC(=O)OC)c2ccccc2)C1 [Velpatasvir, reference compound] | GlyRS (Homo sapiens) | 18.46 ± 0.98 (1/s) × 10^−2

Consider the additional molecule presented here.
Challenge: What value of measured Kdis is listed for Cc1c(OCC(F)(F)F)ccnc1C[S+]([O-])c1nc2ccccc2[nH]1 (stereo not drawn) [Lansoprazole, reference compound] ?
Response given: 9.25 ± 3.64 (1/s) × 10^−2
